- SYSTEM UNDER TEST: HIV-1 JRFL envelope glycoprotein gp41 (N-trimer of the prehairpin intermediate) (HIV-1 strain JRFL)
- RUN DESCRIPTION: cell-based or functional assay
Bridges are numbered along the chain shown (N, C = ends). Roman numbers before positions name the chains, in order. [ ]: non-standard residue; d: D form.
PARAMETER: IC50, JRFL pseudovirion entry (nM)
Entry rule: numbers only, all in nM.

Below: 2 binders and their reported IC50, JRFL pseudovirion entry.
Ac-[dH][dA][dC][dD][dY][dP][dE][dW][dQ][dW][dL][dC][dE][dL]G[dK]-NH2 (disulfide 3-12 (inferred)) [PIE15]: 1450
Ac-[dK]G[dA][dC][dD][dY][dP][dE][dW][dQ][dW][dL][dC][dA][dA]-NH2 (disulfide 4-13 (inferred); also: dimer linked N- to C-terminal by PEG5 spacer) [N5C(PIE7)2]: 300

--- query ---
Data request: Field request: IC50, JRFL pseudovirion entry | item: C5C(PIE7-GK)3 (disulfide I:3-I:12, II:3-II:12 (inferred); also: trimer: C-terminal Lys linked by PEG5 spacers) peptide 1: Ac-G[dA][dC][dD][dY][dP][dE][dW][dQ][dW][dL][dC][dA][dA]G[dK]-NH2 peptide 2: Ac-G[dA][dC][dD][dY][dP][dE][dW][dQ][dW][dL][dC][dA][dA]G[dK][dK]-NH2
Data returned: 6.7
